A collection of binders and their measured NKL Ortho Proliferation Signal 1:2
Biological target: T1, orthogonal hCD122 receptor (hoRb), hCD122 with H133D and Y134F (human, UniProt P14784 27-550)
T1 sequence: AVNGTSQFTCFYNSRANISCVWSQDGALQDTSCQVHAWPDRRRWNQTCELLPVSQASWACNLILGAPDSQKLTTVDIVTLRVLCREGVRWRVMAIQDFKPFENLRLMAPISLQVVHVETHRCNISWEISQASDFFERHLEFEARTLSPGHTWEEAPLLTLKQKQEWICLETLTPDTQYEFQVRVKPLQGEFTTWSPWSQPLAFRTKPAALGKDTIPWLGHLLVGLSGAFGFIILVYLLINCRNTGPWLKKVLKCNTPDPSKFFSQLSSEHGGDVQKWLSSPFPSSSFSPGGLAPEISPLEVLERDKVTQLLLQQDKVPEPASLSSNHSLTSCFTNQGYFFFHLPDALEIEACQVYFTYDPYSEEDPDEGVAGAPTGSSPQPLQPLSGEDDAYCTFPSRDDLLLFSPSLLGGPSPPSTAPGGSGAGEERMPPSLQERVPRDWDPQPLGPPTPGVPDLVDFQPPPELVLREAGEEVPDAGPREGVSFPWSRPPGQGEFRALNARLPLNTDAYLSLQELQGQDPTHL
Assay: cell-based or functional assay
Assay Readout: NKL Ortho Proliferation Signal 1:2

# Binder, Observed Result
data = [
    ("L18I, SQVLKA (ligand) APTSSSTKKTQLQLSQLIVLLKAILNGINNYKNPKLTRMLTFKFYMPKKATELKHLQCLEEELKPLEEVLNLAQSKNFHLRPRDLISNINVIVLELKGSETTFMCEYADETATIVEFLNRWITFCQSIISTLT", 23800),
    ("F42K, SQVLKA (ligand) APTSSSTKKTQLQLSQLLVLLKAILNGINNYKNPKLTRMLTKKFYMPKKATELKHLQCLEEELKPLEEVLNLAQSKNFHLRPRDLISNINVIVLELKGSETTFMCEYADETATIVEFLNRWITFCQSIISTLT", 11900),
    ("L18E, SQVLKA (ligand) APTSSSTKKTQLQLSQLEVLLKAILNGINNYKNPKLTRMLTFKFYMPKKATELKHLQCLEEELKPLEEVLNLAQSKNFHLRPRDLISNINVIVLELKGSETTFMCEYADETATIVEFLNRWITFCQSIISTLT", 8260),
    ("SQVLKH (ligand) APTSSSTKKTQLQLSQLLVLLKHILNGINNYKNPKLTRMLTFKFYMPKKATELKHLQCLEEELKPLEEVLNLAQSKNFHLRPRDLISNINVIVLELKGSETTFMCEYADETATIVEFLNRWITFCQSIISTLT", 44400),
]
